Molecular target: aggregated (oligomeric) P301S 2N4R tau, pHrodo-labelled (human, UniProt P10636 1-758, pHrodo Red maleimide label); also: test concentration or dose not given here
Sequence (P10636 other isoform, or with tags, fused parts or gaps P301S P301S): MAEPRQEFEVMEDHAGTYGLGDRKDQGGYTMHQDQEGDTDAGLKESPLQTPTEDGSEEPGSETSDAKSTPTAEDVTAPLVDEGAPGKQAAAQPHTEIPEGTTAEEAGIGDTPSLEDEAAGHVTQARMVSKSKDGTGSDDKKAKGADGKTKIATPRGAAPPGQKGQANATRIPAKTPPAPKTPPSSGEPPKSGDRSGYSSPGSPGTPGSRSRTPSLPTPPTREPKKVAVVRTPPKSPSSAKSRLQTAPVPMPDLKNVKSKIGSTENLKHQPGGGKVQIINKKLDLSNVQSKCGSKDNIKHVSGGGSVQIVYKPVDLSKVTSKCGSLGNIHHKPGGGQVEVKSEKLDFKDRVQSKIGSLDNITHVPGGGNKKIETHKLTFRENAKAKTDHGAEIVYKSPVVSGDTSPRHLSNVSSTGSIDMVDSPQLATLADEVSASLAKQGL
Assay: cell-based or functional assay
Property Label: inhibition of aggregated tau uptake into human iPSC-derived neurons (%)

Binder	Numeric Result
#44_VH4VK4_H02/pVL (antibody, V domains shown, also called Clone VH4_H02; #44_VH4_H02) VH: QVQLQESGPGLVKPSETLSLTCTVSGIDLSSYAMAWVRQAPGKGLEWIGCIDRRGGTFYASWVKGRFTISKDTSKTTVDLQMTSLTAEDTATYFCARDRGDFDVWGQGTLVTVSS VL: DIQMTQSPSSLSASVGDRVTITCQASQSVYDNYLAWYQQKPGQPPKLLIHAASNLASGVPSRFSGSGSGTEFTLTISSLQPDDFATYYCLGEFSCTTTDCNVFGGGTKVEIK	59.2
#44_VH4VK4_H06/pVL (antibody, V domains shown, also called Clone VH4_H06; #44_VH4_H06) VH: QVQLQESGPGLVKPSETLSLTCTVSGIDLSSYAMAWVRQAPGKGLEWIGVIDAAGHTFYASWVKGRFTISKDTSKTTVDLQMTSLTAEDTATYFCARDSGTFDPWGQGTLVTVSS VL: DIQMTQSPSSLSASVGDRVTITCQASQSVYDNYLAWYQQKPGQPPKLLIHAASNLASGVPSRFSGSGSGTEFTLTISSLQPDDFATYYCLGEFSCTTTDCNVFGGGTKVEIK	55
#44 VH4VK2 humanised hIgG1 (antibody, V domains shown, also called VH4Vκ2; Clone VH4VK2 (C)) VH: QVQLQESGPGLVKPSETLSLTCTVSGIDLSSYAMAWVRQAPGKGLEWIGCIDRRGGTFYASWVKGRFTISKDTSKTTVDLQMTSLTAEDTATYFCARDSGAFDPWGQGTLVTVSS VL: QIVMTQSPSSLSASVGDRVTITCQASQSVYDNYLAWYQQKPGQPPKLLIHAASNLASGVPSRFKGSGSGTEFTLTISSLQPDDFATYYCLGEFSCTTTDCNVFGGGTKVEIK	41.9
